B1: library; a variant is named by its letters at N, in order (parent)
chain: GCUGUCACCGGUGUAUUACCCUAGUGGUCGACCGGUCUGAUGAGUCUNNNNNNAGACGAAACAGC

Variants of: B1
test-protocol: normalized RNA/DNA level with ligand (relative to sTRSVctl = 100) (log10 (% of sTRSVctl)); ligand: hypoxanthine (xanthine aptamer); higher = less ribozyme self-cleavage, higher mRNA level
experimental-setup: ligand concentration (+) RNA-Seq: 5 mM, HEK293T, reporter: mCherry (pCS4076), ligand present: yes
measured-quantity: normalized RNA/DNA level with ligand (log10)

> print(dat)
                           residue.sequence  readout.value
1  GCUGUCACCGGUGUAUUACCCUAGUGGUCGACCGGUCUGAUGAGUCUUUGAGGAGACGAAACAGC [UUGAGG]           1.98
2  GCUGUCACCGGUGUAUUACCCUAGUGGUCGACCGGUCUGAUGAGUCUCAAUAAAGACGAAACAGC [CAAUAA]           1.89
3  GCUGUCACCGGUGUAUUACCCUAGUGGUCGACCGGUCUGAUGAGUCUAACGCGAGACGAAACAGC [AACGCG]           1.81
4  GCUGUCACCGGUGUAUUACCCUAGUGGUCGACCGGUCUGAUGAGUCUAAGAACAGACGAAACAGC [AAGAAC]            1.9
5  GCUGUCACCGGUGUAUUACCCUAGUGGUCGACCGGUCUGAUGAGUCUGCUCGGAGACGAAACAGC [GCUCGG]           1.88
6  GCUGUCACCGGUGUAUUACCCUAGUGGUCGACCGGUCUGAUGAGUCUGAAUCCAGACGAAACAGC [GAAUCC]           1.93
7  GCUGUCACCGGUGUAUUACCCUAGUGGUCGACCGGUCUGAUGAGUCUGCACUGAGACGAAACAGC [GCACUG]           1.88

Sourced from the supplement of paper PMC6757056
